Molecular target: furin, P09958;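 further: purified furin at 1:10 enzyme:substrate in 50 mM HEPES pH 7.5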
Sequence (P09958 whole entry): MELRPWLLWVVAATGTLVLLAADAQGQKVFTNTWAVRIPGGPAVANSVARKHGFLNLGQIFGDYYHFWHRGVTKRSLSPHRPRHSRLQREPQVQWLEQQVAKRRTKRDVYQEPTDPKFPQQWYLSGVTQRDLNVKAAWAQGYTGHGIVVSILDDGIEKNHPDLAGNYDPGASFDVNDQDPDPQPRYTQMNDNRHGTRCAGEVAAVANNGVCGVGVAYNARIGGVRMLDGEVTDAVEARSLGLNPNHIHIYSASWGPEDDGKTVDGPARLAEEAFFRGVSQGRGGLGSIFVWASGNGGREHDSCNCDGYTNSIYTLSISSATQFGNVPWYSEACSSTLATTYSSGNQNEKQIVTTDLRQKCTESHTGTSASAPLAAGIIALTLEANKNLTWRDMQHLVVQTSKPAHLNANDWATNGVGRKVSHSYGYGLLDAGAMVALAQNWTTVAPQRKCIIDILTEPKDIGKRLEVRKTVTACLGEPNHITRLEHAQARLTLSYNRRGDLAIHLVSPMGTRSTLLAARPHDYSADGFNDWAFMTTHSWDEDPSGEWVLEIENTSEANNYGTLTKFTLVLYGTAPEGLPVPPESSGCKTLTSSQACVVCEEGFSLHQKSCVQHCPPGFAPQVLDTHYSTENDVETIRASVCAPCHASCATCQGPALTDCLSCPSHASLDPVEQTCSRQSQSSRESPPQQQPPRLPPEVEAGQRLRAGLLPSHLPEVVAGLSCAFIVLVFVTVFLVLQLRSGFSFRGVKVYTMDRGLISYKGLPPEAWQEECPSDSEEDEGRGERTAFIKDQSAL
Test: furin cleavage Z-score vs untreated control; higher = more cleavage, active = 3.5 or more, inactive = 1 or less, 8 variable residues between constant flanks
Conditions: 7.5 min
Some of the results follow. The true hit rate is not given.
OUTCOME_MEASURE: furin cleavage Z-score
Just the number.

Looking for the measured furin cleavage Z-score of CARSKRIAGKAGNASASA [FS-2811] , can you help? 0.535

# iterate: CAPYYKRYISAGNASASA [HC577] -0.596

# iterate: CARPGRKDRRAGNASASA [FS-1067] 0.778

Now for a further sequence.
Looking for the measured furin cleavage Z-score of CARKKRKSPKAGNASASA [FS-2268] , can you help? 0.83
